AC50 values, listed per item
# measurementTarget: Prostaglandin G/H synthase 1 (Rattus norvegicus); further: assay procedure not described here
# Sequence (Q63921 whole entry): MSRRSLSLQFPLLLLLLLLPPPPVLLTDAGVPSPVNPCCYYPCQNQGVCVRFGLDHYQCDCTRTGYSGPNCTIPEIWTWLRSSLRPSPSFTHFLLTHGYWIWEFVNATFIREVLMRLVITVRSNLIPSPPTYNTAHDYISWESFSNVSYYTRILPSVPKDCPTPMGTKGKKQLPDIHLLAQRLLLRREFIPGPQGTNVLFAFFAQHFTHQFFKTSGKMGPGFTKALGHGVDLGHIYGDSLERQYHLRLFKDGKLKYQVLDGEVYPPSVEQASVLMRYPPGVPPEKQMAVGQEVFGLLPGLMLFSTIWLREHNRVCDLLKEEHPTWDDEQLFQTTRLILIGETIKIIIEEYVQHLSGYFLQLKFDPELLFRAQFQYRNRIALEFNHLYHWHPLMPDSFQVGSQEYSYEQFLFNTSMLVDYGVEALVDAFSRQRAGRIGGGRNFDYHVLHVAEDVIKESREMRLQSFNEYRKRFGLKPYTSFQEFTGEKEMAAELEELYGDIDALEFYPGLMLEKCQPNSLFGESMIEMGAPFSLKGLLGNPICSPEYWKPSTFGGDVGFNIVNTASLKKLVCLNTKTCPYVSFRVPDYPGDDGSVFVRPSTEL
# Format: functional

See these solved cases before continuing.
compound	assayMetric	result
CCC1(c2ccccc2)C(=O)NCNC1=O	AC50	> 10 µM
NS(=O)(=O)c1ccc(N2CCCCS2(=O)=O)cc1	AC50	> 30 µM
OCCOCCN1CCN(C(c2ccccc2)c2ccc(Cl)cc2)CC1 (configuration not stated) [HYDROXYZINE]	AC50	> 30 µM
CC(=O)NC[C@H]1CN(c2ccc(N3CCOCC3)c(F)c2)C(=O)O1	AC50	> 30 µM
C[C@H](Nc1ncnc2[nH]cnc12)c1cc2cccc(Cl)c2c(=O)n1-c1ccccc1	AC50	> 30 µM

The compound CO/N=C(\C(=O)N[C@@H]1C(=O)N2C(C(=O)O)=C(CSc3nc(C)c(CC(=O)O)s3)CS[C@H]12)c1csc(N)n1 , when measured on Prostaglandin G/H synthase 1 (Rattus norvegicus), yielded AC50 of 27 µM

Given the compound Cc1cnc(Nc2ccc(OCCN3CCCC3)cc2)nc1Nc1cccc(S(=O)(=O)NC(C)(C)C)c1 and test system Prostaglandin G/H synthase 1 (Rattus norvegicus), the measured AC50 is > 30 µM

Record NCCCNCCSP(=O)(O)O / Prostaglandin G/H synthase 1 (Rattus norvegicus), AC50 recorded as > 30 µM

So the reported AC50 for COc1ccc(C(Cl)=C(c2ccc(OC)cc2)c2ccc(OC)cc2)cc1 , on Prostaglandin G/H synthase 1 (Rattus norvegicus), turned out to be 0.259 µM

Reading of AC50 for CN(C)[C@@H]1C(O)=C(C(=O)NCN2CCCC2)C(=O)[C@@]2(O)C(O)=C3C(=O)c4c(O)cccc4[C@@](C)(O)[C@H]3C[C@@H]12 with Prostaglandin G/H synthase 1 (Rattus norvegicus): 0.653 µM

Form field AC50 for item CC(=O)OCC1=C(C(=O)O)N2C(=O)[C@@H](NC(=O)CSc3ccncc3)[C@H]2SC1 on Prostaglandin G/H synthase 1 (Rattus norvegicus): > 10 µM

Item CCCO[C@H]1[C@@H]([C@@H](COCc2ccc(Cl)cc2)OCc2ccc(Cl)cc2)OC(OCC)[C@@H]1O (some centres not stated) [CLOBENOSIDE] ; assay system Prostaglandin G/H synthase 1 (Rattus norvegicus); AC50 reported as > 10 µM
